These entries and their values trace back to paper PMC12367851.

Molecular target: human CB1 receptor (Homo sapiens, UniProt P21554)
Sequence (P21554 whole entry): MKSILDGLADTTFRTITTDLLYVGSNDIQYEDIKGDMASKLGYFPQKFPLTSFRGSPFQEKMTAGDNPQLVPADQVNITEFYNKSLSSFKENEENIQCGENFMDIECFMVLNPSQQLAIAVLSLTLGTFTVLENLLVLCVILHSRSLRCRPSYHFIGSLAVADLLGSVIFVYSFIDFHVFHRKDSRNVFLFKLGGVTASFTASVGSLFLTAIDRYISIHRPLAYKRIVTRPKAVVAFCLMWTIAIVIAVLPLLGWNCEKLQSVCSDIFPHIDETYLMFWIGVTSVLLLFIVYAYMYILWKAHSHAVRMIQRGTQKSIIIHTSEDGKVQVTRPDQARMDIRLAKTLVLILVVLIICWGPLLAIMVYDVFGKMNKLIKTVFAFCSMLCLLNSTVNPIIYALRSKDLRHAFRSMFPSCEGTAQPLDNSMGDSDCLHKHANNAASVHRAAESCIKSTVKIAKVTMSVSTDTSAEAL
Assay: AequoScreen CB1 assay (intracellular Ca2+ release, CHO-K1 cells, apoaequorin/Gα16)
Conditions: Compound 1 vs Compound 2 = MDMB-5’F-BUTINACA; Brown-Forsythe and Welch ANOVA
parameter.measured: Efficacy (Emax) Mean Diff

CCCCn1nc(C(=O)NC(C(=O)OC)C(C)(C)C)c2cc(Br)ccc21 (stereo not shown) | 2.52
CCCCn1nc(C(=O)NC(C(N)=O)C(C)(C)C)c2cc(F)ccc21 (stereo not shown) | 1.89
CCCCn1nc(C(=O)NC(C(N)=O)C(C)C)c2cc(F)ccc21 (stereo not shown) | -4.12
CCCCn1nc(C(=O)NC(C(=O)OC)C(C)C)c2cc(F)ccc21 (stereo not shown) | -4.36

###

Target: human CB1 receptor (Homo sapiens, UniProt P21554)
Experiment: AequoScreen CB1 assay (intracellular Ca2+ release, CHO-K1 cells, apoaequorin/Gα16)
Could you please mark yes for values of EC50 below 100 nM and no for values at or above it?

CCCCn1nc(C(=O)NC(C(=O)OC)C(C)(C)C)c2cc(F)ccc21 (stereo not drawn) [MDMB-5′F-BUTINACA] | yes
CC(C)(C)C(NC(=O)c1n[nH]c2ccc(Br)cc12)C(N)=O (stereo not drawn) [ADB-5′Br-INACA] | no
CCCCn1nc(C(=O)NC(C(=O)OC)C(C)C)c2cc(Cl)ccc21 (stereo not drawn) [MMB-5′Cl-BUTINACA] | no
COC(=O)C(NC(=O)c1n[nH]c2ccc(C)cc12)C(C)(C)C (stereo not drawn) [MDMB-5′Me-INACA] | no
COC(=O)C(NC(=O)c1n[nH]c2ccc(Br)cc12)C(C)(C)C (stereo not drawn) [MDMB-5′Br-INACA] | no
CCCCn1nc(C(=O)NC(C(=O)OC)C(C)(C)C)c2ccccc21 (stereo not drawn) [MDMB-BUTINACA, reference compound] | yes
